Experiment: growth inhibition, single agent or in combination, cell-based, chromothripsis tumors, cisplatin or BGB combos (AID 1671449);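 note: cells exposed for 96 hours; 0% = vehicle DMSO and 100% = killing by high DMSO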
Conditions: LFS_MB_P medulloblastoma cells, measured here: combination with cisplatin, at 5 µM, stronger effect = higher value
Assay Metric: inhibition
Kindly report the value followed by its unit.

Using the record for CC1CNC(=O)NC1=O (stereo not drawn) , report its inhibition. -13.3%

Then this molecule: Cc1cn(C2C=CC(CO)O2)c(=O)[nH]c1=O (stereo not drawn) -24.4%

Then this molecule: COc1cccc2c1C(=O)c1c(O)c3c(c(O)c1C2=O)CC(O)(C(C)=O)CC3OC1CC(N)C(O)C(C)O1 (stereo not drawn) 121%

Then this molecule: CC(C)(C#N)c1ccc(N2C(=O)OCc3cnc4ccc(-c5cnc6ccccc6c5)cc4c32)cc1 -27.3%

Then this molecule: C=CC1=C(C)C2=CC3=NC(=C(CC(=O)O)C4=NC(=C(C)C4=C(O)O)C=c4[nH]c(c(C)c4CC)=CC1=N2)C(CCC(=O)O)C3C (stereo not drawn) -59.6%

Then this molecule: Cc1cc(C=CC#N)cc(C)c1Nc1ccnc(Nc2ccc(C#N)cc2)n1 -38.4%

Then this molecule: COc1ccccc1S(=O)(=O)Nc1ccc2c(c1)CN(C)C(=O)N2 27.9%

Then this molecule: NC(=O)c1ncn(C2OC(CO)C(O)C2O)c1O (stereo not drawn) -30%

Then this molecule: O=c1[nH]cnc2c1ncn2C1CCC(CO)O1 (stereo not drawn) -16.6%

Then this molecule: C=C1C(=O)O[C@@H]2C=C(C)CCC=C(C)CC[C@@H]12 114%

Then this molecule: O=C(CCCCCCC(=O)Nc1ccc(I)cc1)NO 112%

Then this molecule: NC(=S)NN=Cc1ncccc1N -31.8%

Then this molecule: CC(C)c1ccc(-c2cc(=O)c3ccccc3o2)cc1 60.2%

Then this molecule: O=c1cc(-c2ccc(O)cc2)[nH]c(=S)[nH]1 3.08%

Then this molecule: C=C(C)C1CCC2(C(=O)O)CCC3(C)C(CCC4C5(C)CCC(O)C(C)(C)C5CCC43C)C12 (stereo not drawn) -28.2%

Then this molecule: O=C(CCSc1nc2ccccc2c(=O)[nH]1)NC1CCC(c2nnc(-c3ccccc3)o2)CC1 (stereo not drawn) -49.7%

Then this molecule: CON=C1CN(c2nc3c(cc2F)c(=O)c(C(=O)O)cn3C2CC2)CC1CN (stereo not drawn) -32.3%

Then this molecule: CCC(Sc1nnc2c3ccccc3n(CC)c2n1)C(=O)Nc1ccccc1OC (stereo not drawn) -38.2%
